Tested on: LXRb homodimer (NR concentration 270 nM)
Assay: PBM binding z-score (relative to random genomic background probes); higher = stronger binding; sequences stand for … in GC…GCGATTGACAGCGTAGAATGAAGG
Classify as follows. Reported PBM binding z-score greater than or equal to 0.8: True. Reported PBM binding z-score below: False.

Asked: Given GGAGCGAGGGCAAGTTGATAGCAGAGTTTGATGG , state whether its PBM binding z-score is at least 0.8.
Given back: False

Asked: Given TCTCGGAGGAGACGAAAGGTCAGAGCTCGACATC , state whether its PBM binding z-score is at least 0.8.
Given back: False

Asked: Given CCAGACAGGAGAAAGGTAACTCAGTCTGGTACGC , state whether its PBM binding z-score is at least 0.8.
Given back: False

Asked: Given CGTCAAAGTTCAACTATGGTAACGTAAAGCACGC , state whether its PBM binding z-score is at least 0.8.
Given back: True

Asked: Given TCTAGTTGGTCACGGAGGTCACACAGGACGGGTA , state whether its PBM binding z-score is at least 0.8.
Given back: False

----------
Please provide measured PBM binding z-score for the entries that follow.
System: PXR homodimer (NR concentration 270 nM)
Experiment: PBM binding z-score (relative to random genomic background probes); higher = stronger binding; sequences stand for … in GC…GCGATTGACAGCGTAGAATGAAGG
Give bare numbers.

> print(dat)
               macromolecule.sequence  recorded.measurement
1  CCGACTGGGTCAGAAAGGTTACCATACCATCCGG                  0.43
2  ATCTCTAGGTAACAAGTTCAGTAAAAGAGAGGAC                  1.66
3  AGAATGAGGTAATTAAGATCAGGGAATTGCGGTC                 0.153

Dear reader, for each entry below, please note its PBM binding z-score.
1. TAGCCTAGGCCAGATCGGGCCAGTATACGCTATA
2. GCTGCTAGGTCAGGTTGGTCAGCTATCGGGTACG
3. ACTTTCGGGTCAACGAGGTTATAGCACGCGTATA
4. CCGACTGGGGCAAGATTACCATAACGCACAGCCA
5. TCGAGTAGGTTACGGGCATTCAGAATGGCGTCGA
6. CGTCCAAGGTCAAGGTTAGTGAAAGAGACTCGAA
7. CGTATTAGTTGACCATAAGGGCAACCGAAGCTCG

Given back:
-0.923
-0.458
6.97
-0.382
-0.967
0.691
0.0683

----------
System: RARa:RXR (NR concentration 270 nM, RXRa partner concentration 90 nM)
Assay: PBM binding z-score (relative to random genomic background probes); higher = stronger binding; sequences stand for … in GC…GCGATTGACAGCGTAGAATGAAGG
# thresholds on PBM binding z-score define classes: c1: < 0.7; c2: ≥ 0.7 and < 3; c3: ≥ 3

> print(dat)
               macromolecule.sequence  class.assignment
1  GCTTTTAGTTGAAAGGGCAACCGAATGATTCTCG                c2
2  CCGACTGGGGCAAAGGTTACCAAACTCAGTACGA                c3

Asked: Which bin, given its PBM binding z-score, does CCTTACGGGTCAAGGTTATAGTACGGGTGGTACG occupy?
Given back: c3

Asked: Which bin, given its PBM binding z-score, does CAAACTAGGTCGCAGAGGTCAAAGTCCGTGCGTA occupy?
Given back: c3

Asked: Which bin, given its PBM binding z-score, does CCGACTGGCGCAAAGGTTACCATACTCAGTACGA occupy?
Given back: c2

Asked: Which bin, given its PBM binding z-score, does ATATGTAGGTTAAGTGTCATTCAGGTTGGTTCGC occupy?
Given back: c2

Asked: Which bin, given its PBM binding z-score, does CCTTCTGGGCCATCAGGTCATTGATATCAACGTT occupy?
Given back: c2

Asked: Which bin, given its PBM binding z-score, does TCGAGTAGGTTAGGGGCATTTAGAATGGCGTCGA occupy?
Given back: c1

meta.source: the supplement of paper PMC6555819
